Biological target: T1, EGFR Fc (human, UniProt P00533 25-645)
T1 construct: also called EGFR-hFc; recombinant human EGFR-Fc
Test: ELISA, EGFR Fc coated, VHH at 2 nM
Kindly supply the reported OD450 values for the records listed here.

pgEG-SX40 (VHH, not shown: small tags and cut ends) VHH: QVQLVESGGGLVQAGGSLRLSCTGSGIRFSFYTLGWYRQAPGKQRELVAEIYSSDNAKYEDSVKGRFAISRDNAKNSVSLQMNSLKPEDTAVYYCNVRATDYWGPGTQVTVSS ... 0.626

I need OD450 for every entry listed below, if you could help.
1. pgEG-SX3 (VHH, not shown: small tags and cut ends) VHH: QVQLVESGGGLVQAGGSLRLSCVVYGSIFASTTMGWYRQAPGKQRELVATVYQSGTSVYADSVKGRFTASRDNAKKTVYLQMNSLKPEDTAVYYCHPRATDYWGRGTQVTVSS
2. pgEG-SX52 (VHH, not shown: small tags and cut ends) VHH: QVQLVESGGGLVKAGKSLRLSCAASVSSFDTYTMGWYRQAPGKQREQVAIITPGAGTHYADSVKGRFTISRDNAKNTVYLQMSSLKLEDTAVYYCKARHRITGYDYWGQGTQVTVSS

*A*
0.843
2.34

I need OD450 for every entry listed below, if you could help.
1. pgEG-SX56 (VHH, not shown: small tags and cut ends) VHH: QVQLVESGGGFVQAGGSLRLSCAASGRFLSIADMDWYRRVPGKQRELVASITRAGDTALEDSVKGRFTISRDNAKNTVHLQMNSVKPEDTAVYYCRADVTRSGTPYFEVWGQGTLVTVSS
2. pgEG-SX6 (VHH, not shown: small tags and cut ends) VHH: QVQLVESGGGTVQAGGSLRLSCVASGMREDIFDMGWYRQAPGLQRELVATITSGGSTDYADSVKGRFTISRDNTENTLNLQMNMLKPEDTAVYYCNALYFPPSGGRSSEFWGQGTLVTVSS

*A*
1: 1.46; 2: 1.83

I need OD450 for every entry listed below, if you could help.
1. pgEG-SX39 (VHH, not shown: small tags and cut ends) VHH: QVQVAESGGGLVQAGESLRLSCTASGSISTINAVRWYRQTPGKQREFVAYISTDGGTDYADPVKGRFTISRDNAKNTWFLQMNSLKPEDTGVYMCNVVVTPYAYWGQGTQVTVSS
2. pgEG-SX9 (VHH, not shown: small tags and cut ends) VHH: QVQLVESGGGLVQAGGSLRLSCAASVSGSALSNMAWYRQRPGNQRELVAHITFDNFTNYADSVKGRFTISRDNVKNTVDLQMSSLKPEDTAVYYCNARHFFGDNYWGKGTLVTVSS
3. pgEG-SX57 (VHH, not shown: small tags and cut ends) VHH: QVQLVESGGGLVQAGGSLRLSCAGARSIFSIKPMTWYRQAPGKERELVAWFTSGDSPNYADSVKGRFTISRDSAKNTVYLQMNNLKPEDTAVYYCNAVPPLGRWGQGTLVTVSS

*A*
0.073
2.64
2.79

Source of measurements: patent US20250376535A1
